Documented EC50 across a set of compounds
# Test system: rat NPFF1 receptor (Rattus norvegicus, UniProt Q9EP86)
# Construct: expressed in transfected cells; host or cells: not given
# Sequence (Q9EP86 whole entry): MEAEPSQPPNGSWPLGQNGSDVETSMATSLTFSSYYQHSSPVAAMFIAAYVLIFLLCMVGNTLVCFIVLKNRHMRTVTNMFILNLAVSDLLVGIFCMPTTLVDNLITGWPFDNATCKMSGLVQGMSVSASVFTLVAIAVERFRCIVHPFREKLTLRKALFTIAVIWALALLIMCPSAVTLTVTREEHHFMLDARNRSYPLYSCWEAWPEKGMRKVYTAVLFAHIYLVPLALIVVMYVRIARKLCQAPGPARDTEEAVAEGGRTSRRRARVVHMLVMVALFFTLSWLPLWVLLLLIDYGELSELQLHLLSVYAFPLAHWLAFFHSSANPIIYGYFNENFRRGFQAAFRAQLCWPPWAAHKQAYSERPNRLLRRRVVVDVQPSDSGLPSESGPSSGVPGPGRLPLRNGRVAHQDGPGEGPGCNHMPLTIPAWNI
# Protocol description: Functional assay (agonist potency, intrinsic activity) at cloned rat NPFF1 receptor
# Type: cell-based
# Cond: Table 7, agonist potency; read-out: rNPFF1 EC50

Record excerpt, results attached:
{"columns": ["Compound", "Test system", "EC50"],
 "data": [
  ["CCc1nc(NC(=N)N)nc2ccc(C)cc12 [Compound 1027A]", "rat NPFF1 receptor (Rattus norvegicus, UniProt Q9EP86)", "> 10 µM"],
  ["Cc1nc(NC(=N)N)nc2ccc(OCCCCCOc3ccccc3)cc12 [Compound 1005A]", "rat NPFF1 receptor (Rattus norvegicus, UniProt Q9EP86)", "> 10 µM"],
  ["Cc1nc(NC(=N)N)nc2cc3ccoc3cc12 [Compound 1039A]", "rat NPFF1 receptor (Rattus norvegicus, UniProt Q9EP86)", "> 10 µM"]
]}

Proceeding to the next compound to report its EC50.
Measured EC50 of CCCCCCCCc1ccc2nc(NC(=N)N)nc(C)c2c1 [Compound 1009A] : 1.49 µM
